// data source = PubChem BioAssay (NCI)

- test_description: NCI Yeast Anticancer Drug Screen. Data for the mlh1 rad18 strain (AID 175)
- assay_context: S. cerevisiae mlh1 rad18 strain growth inhibition; at 50.0 µM; active compounds read high
This is part of a sample that, as a whole, favours compounds with a hit. Of some 79,000 tested, about 15% had one in any assay.
Collected growth inhibition values appear next to each entry.
Form entry: value (%) — number only.

Recorded results for 2 molecules are shown here.
C[Si](C)c1cccc(Cl)c1
-0.75
O=C([O][Sb]([O]C(=O)C(Cl)(Cl)Cl)([c]1ccccc1)([c]1ccccc1)[c]1ccccc1)C(Cl)(Cl)Cl
66.7

# context switch: different molecule, same growth inhibition
Query Cc1ccc(S(=O)(=O)C(Br)CC(=O)c2ccccc2)cc1 (stereo unspecified) yields growth inhibition of 99.3

----------
growth inhibition: recorded values
- test_description: NCI Yeast Anticancer Drug Screen. Data for the mlh1 rad18 strain (AID 175)
- assay_context: S. cerevisiae mlh1 rad18 strain growth inhibition; at 50.0 µM; active compounds read high
The panel holds about 79,000 compounds, 15% with a hit somewhere; the sample as a whole holds those more often.
Return type: number; implicit unit %.

N#C/C(=C/c1cc(I)cc(I)c1O)C(N)=O
71.2
C=CC(=O)N1C/C(=C\c2ccc([N+](=O)[O-])cc2)C(=O)/C(=C/c2ccc([N+](=O)[O-])cc2)C1
81.5
CC(C)(Br)C(Br)C(=O)C(Br)C(C)(C)Br (configuration not stated)
69
O=C(c1ccc(O)c(Br)c1)c1cc(Br)ccc1O
95.9
CCCCCCCCCCCCCCCCC#N
24.1
CCC[CH2][Sn]([S][Sn]([CH2]CCC)([c]1ccccc1)[c]1ccccc1)([c]1ccccc1)[c]1ccccc1
99.3

Value of measured growth inhibition for the entry `c1ccc2nc3ccccc3nc2c1` : 75

Field growth inhibition (entry `CC(=O)N1C/C(=C\c2ccccc2)C(=O)/C(=C/c2ccccc2)C1` ) reads 78.9

The measured growth inhibition associated with Cc1c(N)nc(C(CC(N)=O)NCC(N)C(N)=O)nc1C(=O)NC(C(=O)NC(C)C(O)C(C)C(=O)NC(C(=O)NCCc1nc(-c2nc(C(=O)NCCCNCCCc3ccccn3)cs2)cs1)C(C)O)C(OC1OC(CO)C(O)C(O)C1OC1OC(CO)C(O)C(OC(N)=O)C1O)c1cnc[nH]1 (configuration not stated) reads 92

----------
Quick reference: growth inhibition of the listed items.
- test_description: NCI Yeast Anticancer Drug Screen. Data for the mec2-1 strain (AID 157)
- assay_context: S. cerevisiae mec2-1 strain, at 50.0 µM (retest, dose inferred, filed as 5.0), active compounds read high
Compounds without any hit were thinned out: in the full panel of roughly 79,000, 15% have a hit.
// return numeric value only (unit: %, not printed)

Examples from the recorded data:
COc1cc(C/C(=C/c2ccc(OC)c3occc23)[N+](=O)[O-])cc(OC)c1OC
100
CCCOc1ccc(/C=N/NC(N)=S)cc1
50
COC(=O)C1(Cc2ccc(C)cc2)Cc2c(C)cccc2C1=O (stereo unspecified)
35
CC(=O)Nc1cccc2c1ccc1ccc3ccccc3c12
9
COC(=O)C1=CCC[C@H]2C1(C)CCC(C)C21CC(c2ccoc2)OC1=O (stereo partly specified)
85

Record summary for `O=c1[nH]cnc2nc(I)[nH]c12` : reported growth inhibition = -3

Sure, the documented growth inhibition for `CCOC(=O)Nc1cc2c(cn1)[nH]c1ccccc12` is 72
